# Target Or Test System: α-glucosidase (Saccharomyces cerevisiae)
# Construct: purchased Sigma-Aldrich Co. (St. Louis, MI, USA)
# Sequence (P53341 whole entry): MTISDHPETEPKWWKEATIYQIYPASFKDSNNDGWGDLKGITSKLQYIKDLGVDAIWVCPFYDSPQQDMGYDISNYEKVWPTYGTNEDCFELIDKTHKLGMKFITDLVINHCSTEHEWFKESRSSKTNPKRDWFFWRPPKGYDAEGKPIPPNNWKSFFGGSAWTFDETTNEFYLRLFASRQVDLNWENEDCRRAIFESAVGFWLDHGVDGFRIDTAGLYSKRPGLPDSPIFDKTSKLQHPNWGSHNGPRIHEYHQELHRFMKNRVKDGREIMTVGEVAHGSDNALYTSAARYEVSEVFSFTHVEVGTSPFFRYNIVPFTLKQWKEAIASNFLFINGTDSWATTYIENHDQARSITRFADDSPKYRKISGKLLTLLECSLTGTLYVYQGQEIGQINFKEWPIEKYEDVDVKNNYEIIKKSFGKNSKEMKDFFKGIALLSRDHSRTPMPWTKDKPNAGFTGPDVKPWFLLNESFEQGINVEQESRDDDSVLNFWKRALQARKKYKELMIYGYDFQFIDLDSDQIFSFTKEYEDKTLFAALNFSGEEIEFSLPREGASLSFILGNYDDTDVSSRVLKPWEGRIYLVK
# Protocol Description: Fluorescence quenching experiment (Stern-Volmer)
# Format: binding
# Condition Info: T 305.15 K
Attribute Measured: n (number of binding sites)

Compound	n (number of binding sites)
COc1ccc(-c2nn(-c3ccccc3)c(C)c2-c2cc(C#N)c(C#N)cc2O)cc1	0.99
C[C@H]1O[C@H](O[C@H]2[C@H](O)[C@@H](O)[C@@H](O[C@H]3[C@H](O)[C@@H](O)C(O)O[C@@H]3CO)O[C@@H]2CO)[C@H](O)[C@@H](O)[C@@H]1N[C@H]1C=C(CO)[C@@H](O)[C@H](O)[C@H]1O (stereo partly shown) [Acarbose, acarbose, reference compound]	0.98
O=[N+]([O-])c1ccccc1C1Oc2ccccc2C2CC(c3ccccc3)=NN21 (stereo not shown)	1.17
O=C1Nc2ccc(Br)cc2/C1=C\c1nc2ccccc2c(=O)n1-c1ccc(C(=O)O)cc1	1.20
